Ref: paper PMC7570859

Test: Pharmacokinetic study of dalbavancin components in rat plasma after IV dalbavancin hydrochloride (UHPLC-MS/MS)
Settings: D1, single-dose group, SD rats, IV 40 mg/kg dalbavancin hydrochloride, UHPLC-MS/MS, non-compartmental, mean ± SD, n = 10
reported_property: AUC(0–∞) (µg·h/mL)
Write the answer as a number in µg·h/mL, unit excluded.

CN[C@H]1C(=O)N[C@@H]2Cc3ccc(cc3)Oc3cc4cc(c3O[C@@H]3O[C@H](C(=O)O)[C@@H](O)[C@H](O)[C@H]3NC(=O)CCCCCCCC(C)C)Oc3ccc(cc3Cl)[C@@H](O)[C@@H]3NC(=O)[C@H](NC(=O)[C@@H]4NC(=O)[C@@H](NC2=O)c2cc(cc(O)c2Cl)Oc2cc1ccc2O)c1ccc(O)c(c1)-c1c(O[C@H]2O[C@H](CO)[C@@H](O)[C@H](O)[C@@H]2O)cc(O)cc1[C@@H](C(=O)NCCCN(C)C)NC3=O [A0]    11.8
CC(C)CCCCCCCCC(=O)N[C@H]1[C@H](Oc2c3cc4cc2Oc2ccc(cc2Cl)[C@@H](O)[C@@H]2NC(=O)[C@H](NC(=O)[C@@H]4NC(=O)[C@H]4NC(=O)[C@@H](Cc5ccc(cc5)O3)NC(=O)[C@H](N(C)C)c3ccc(O)c(c3)Oc3cc(O)c(Cl)c4c3)c3ccc(O)c(c3)-c3c(O[C@H]4O[C@H](CO)[C@@H](O)[C@H](O)[C@@H]4O)cc(O)cc3[C@@H](C(=O)NCCCN(C)C)NC2=O)O[C@H](C(=O)O)[C@@H](O)[C@@H]1O [B2]    187.2
CCCCCCCCCCC(=O)N[C@H]1[C@H](Oc2c3cc4cc2Oc2ccc(cc2Cl)[C@@H](O)[C@@H]2NC(=O)[C@H](NC(=O)[C@@H]4NC(=O)[C@H]4NC(=O)[C@@H](Cc5ccc(cc5)O3)NC(=O)[C@H](NC)c3ccc(O)c(c3)Oc3cc(O)c(Cl)c4c3)c3ccc(O)c(c3)-c3c(O[C@H]4O[C@H](CO)[C@@H](O)[C@H](O)[C@@H]4O)cc(O)cc3[C@@H](C(=O)NCCCN(C)C)NC2=O)O[C@H](C(=O)O)[C@@H](O)[C@@H]1O [A1]    173.1

Attention now turns to another entry.
Record request: AUC(0–∞) value, item CCCCCCCCCCCC(=O)N[C@H]1[C@H](Oc2c3cc4cc2Oc2ccc(cc2Cl)[C@@H](O)[C@@H]2NC(=O)[C@H](NC(=O)[C@@H]4NC(=O)[C@H]4NC(=O)[C@@H](Cc5ccc(cc5)O3)NC(=O)[C@H](NC)c3ccc(O)c(c3)Oc3cc(O)c(Cl)c4c3)c3ccc(O)c(c3)-c3c(O[C@H]4O[C@H](CO)[C@@H](O)[C@H](O)[C@@H]4O)cc(O)cc3[C@@H](C(=O)NCCCN(C)C)NC2=O)O[C@H](C(=O)O)[C@@H](O)[C@@H]1O [B1]
756.2
